test system: A549; assay: Cytotoxicity against human A549 cells assessed as decrease in cell viability after 4 days by MTT assay; assay type: functional, cell-based; conditions: A549, 96 h
pIC50: −log10 of the molar value.
MEASURE: pIC50

compound_smiles=C=C1C(=O)[C@]23C[C@@]1(O)CC[C@H]2c1ccc(OS(=O)(=O)c2ccc(C)cc2)c(C)c1[C@@H]3Cn1cc(-c2ccc(OC)cc2)nn1 measure=pIC50 inequality_symbol== value_measured=5.83
compound_smiles=C=C1C(=O)[C@]23C[C@@]1(O)CC[C@H]2c1ccc(O)c(C)c1[C@@H]3Cn1cc(-c2ccc(C(F)(F)F)cc2)nn1 measure=pIC50 inequality_symbol== value_measured=5.95
compound_smiles=Cc1ccc(S(=O)(=O)Oc2ccc3c(c2C)[C@H](Cn2cc(-c4ccccn4)nn2)[C@@]24CC(=O)[C@@](C)(CC[C@@H]32)C4)cc1 measure=pIC50 inequality_symbol=< value_measured=4.70
compound_smiles=C=C1C[C@]23C[C@@]1(O)CC[C@H]2c1ccc(O)c(C)c1[C@@H]3Cn1cc(-c2ccc(Br)cc2)nn1 measure=pIC50 inequality_symbol=< value_measured=4.70
compound_smiles=C=C1C[C@]23C[C@@]1(O)CC[C@H]2c1ccc(OS(=O)(=O)c2ccc(C)cc2)c(C)c1[C@@H]3Cn1cc(-c2ccc(C(F)(F)F)cc2)nn1 measure=pIC50 inequality_symbol=< value_measured=4.70
compound_smiles=C=C1C(=O)[C@]23C[C@@]1(O)CC[C@H]2c1ccc(O)c(C)c1[C@@H]3Cn1cc(-c2ccccc2)nn1 measure=pIC50 inequality_symbol== value_measured=5.94
compound_smiles=C=C1C[C@]23C[C@@]1(O)CC[C@@H]2c1cccc(C)c1[C@@H]3Cn1cc(-c2ccc(C)cc2)nn1 measure=pIC50 inequality_symbol=< value_measured=4.70
compound_smiles=C=C1C(=O)[C@]23C[C@@]1(O)CC[C@H]2c1ccc(OS(=O)(=O)c2ccc(C)cc2)c(C)c1[C@@H]3Cn1cc(-c2ccc(F)cc2)nn1 measure=pIC50 inequality_symbol== value_measured=5.71
compound_smiles=C=C1C[C@]23C[C@@]1(O)CC[C@H]2c1cc(Br)c(O)c(C)c1[C@@H]3Cn1cc(-c2ccc(C)cc2)nn1 measure=pIC50 inequality_symbol=< value_measured=4.70

###

Recorded IC50, one value per entry.
test system: A549; assay: Cytotoxicity against human A549 cells assessed as decrease in cell viability after 4 days by MTT assay; format: functional, cell-based; settings: A549, 96 h
MEASURE: IC50

compound_smiles=C=C1C[C@]23C[C@@]1(O)CC[C@H]2c1ccc(OS(=O)(=O)c2ccc(C)cc2)c(C)c1[C@@H]3Cn1cc(-c2ccc(OC)cc2)nn1 value_measured="> 20 µM"
compound_smiles=C=C1C[C@]23C[C@@]1(O)CC[C@H]2c1ccc(O)c(C)c1[C@@H]3Cn1cc(-c2ccc(C)cc2)nn1 value_measured="> 20 µM"
compound_smiles=C=C1C[C@]23C[C@@]1(O)CC[C@@H]2c1cccc(C)c1[C@@H]3Cn1cc(-c2ccc(F)cc2)nn1 value_measured="> 20 µM"

###

test system: HL-60; experiment: Cytotoxicity against human HL60 cells assessed as decrease in cell viability after 4 days by MTT assay; type: functional, cell-based; details: HL-60, 96 h
pIC50: −log10 of the molar value.
MEASURE: pIC50

compound_smiles=Cc1ccc(S(=O)(=O)Oc2ccc3c(c2C)[C@H](Cn2cc(-c4ccc(Br)cc4)nn2)[C@@]24CC(=O)[C@@](C)(CC[C@@H]32)C4)cc1 value_measured="< 4.70"
compound_smiles=C=C1C[C@]23C[C@@]1(O)CC[C@H]2c1ccc(OS(=O)(=O)c2ccc(C)cc2)c(C)c1[C@@H]3Cn1cc(-c2ccc(C)cc2)nn1 value_measured="< 4.70"
compound_smiles=Cc1c(O)ccc2c1[C@H](Cn1cc(-c3ccc(C(F)(F)F)cc3)nn1)[C@@]13CC(=O)[C@@](C)(CC[C@@H]21)C3 value_measured="< 4.70"
